# Test system: BL2-NFkB-Luc
# assay details: CD40L-induced NF-kB luciferase activity, plate-corrected, relative to DMSO (0) and IKK inhibitor VII (-100) controls (% normalized activity); higher = more NF-kB reporter activity (less inhibition)
# condition summary: 9.4 µM; stimulus: tCD40L 64 ng/ml; 4.5 h
Over roughly 1,900 compounds, “CD40L-induced NF-kB luciferase activity, plate-corrected, relative to DMSO (0) and IKK inhibitor VII (-100) controls” has its median near 0.032; the lowest 2% begin near -26. The entries come from a sample that favours the lowest values as a whole.
endpoint: CD40L-induced NF-kB luciferase activity
Lab note: record the figure alone, no unit after it.

// worked examples, CD40L-induced NF-kB luciferase activity included
COc1ccc(CCN2CCC(Nc3nc4ccccc4n3Cc3ccc(F)cc3)CC2)cc1 :: -4.18
CN1C2CCC1CC(OC(=O)c1ccc(Cl)cc1)C2 (centres undefined) :: -2.24
CC12CC[C@H]3[C@@H](CCC4(O)C[C@H](O)CCC34C=NNC(=O)Cc3ccccc3)C1(O)CCC2C1=CC(=O)OC1 (some centres undefined) :: -1.26

As a next step, examine the compound that follows.
Query: # input compound: CC(C)(C)NCC(O)c1cc(Cl)c(N)c(Cl)c1 (centres undefined) ; wanted: its CD40L-induced NF-kB luciferase activity
Response: -3.51

====

# Test system: BL2-NFkB-Luc
# assay details: CD40L-induced NF-kB luciferase activity, plate-corrected, relative to DMSO (0) and IKK inhibitor VII (-100) controls (% normalized activity); higher = more NF-kB reporter activity (less inhibition)
# condition summary: 9.4 µM; stimulus: tCD40L 64 ng/ml; 4.5 h
The full ranking holds about 1,900 compounds; the median of “CD40L-induced NF-kB luciferase activity, plate-corrected, relative to DMSO (0) and IKK inhibitor VII (-100) controls” is about 0.032, and the lowest 2% start at about -26. The entries come from a sample that favours the lowest values as a whole.
Class key for CD40L-induced NF-kB luciferase activity values: bottom bin (below -6), middle bin (-6 to below -0.09), top bin (-0.09 or more)

Worked examples, 10 compounds total:
COc1ccc(OCC(=O)N2c3ccc(C)cc3C3CN(C)CCC32)cc1 (stereo not given) :: top bin
CC(C)C[C@H]1C(=O)N2CCC[C@H]2[C@]2(O)O[C@](NC(=O)[C@@H]3C=C4c5cccc6[nH]c(Br)c(c56)CC4N(C)C3)(C(C)C)C(=O)N12 (stereo not given in full) :: top bin
CC[C@H]1CN2CCc3cc(OC)c(OC)cc3[C@@H]2C[C@@H]1C[C@H]1NCCc2cc(OC)c(OC)cc21 :: bottom bin
COc1ccc(CN2CC3CC(C2)c2cccc(=O)n2C3)cc1OC (stereo not given) :: middle bin
CN(C)[C@@H]1C(=O)C(C(N)=O)C(=O)[C@@]2(O)C(=O)C3C(=O)c4c(O)cccc4[C@@](C)(O)[C@H]3[C@H](O)[C@@H]12 (stereo not given in full) :: top bin
O=C1CSC2N1CCNC21CCCCC1 (stereo not given) :: middle bin
CN[C@H](C)[C@H](O)c1ccccc1 :: middle bin
CN1[C@@H]2CC[C@H]1CC(OC(=O)C1C=Nc3ccccc31)C2 (stereo not given in full) :: middle bin
CCCC(=O)OCC[N+](C)(C)C :: middle bin
c1ccc2c3c([nH]c2c1)CNCC3 :: top bin

Query: Kindly identify the class of O=C1C=Cc2ccccc2C1=O .
Response: top bin

Query: Kindly identify the class of COc1cc([C@@H]2c3cc4c(cc3[C@H](O)[C@H]3COC(=O)[C@H]23)OCO4)cc(OC)c1OC .
Response: bottom bin

Query: Kindly identify the class of CCCC[N+]1(C)[C@@H]2CC(OC(=O)[C@H](CO)c3ccccc3)C[C@H]1[C@@H]1O[C@@H]12 (stereo not given in full) .
Response: middle bin

Query: Kindly identify the class of O=C1C(=O)c2ccccc2-c2ccccc21 .
Response: bottom bin

Query: Kindly identify the class of CCN(CC)C(=O)N[C@H]1C[C@@H]2c3cccc4[nH]cc(c34)C[C@H]2N(C)C1 .
Response: bottom bin

Data credit: the supplement of paper PMC3656093
